B1: C10orf62 (parent)
chain: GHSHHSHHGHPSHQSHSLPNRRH

Variants of: B1
Assay: protein stability index of a GFP-peptide fusion (GPS, HEK-293T) (PSI 1-6); higher = more stable;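 note: lentivirally expressed fusions sorted by FACS into six bins by GFP to DsRed ratio, PSI derived from sequencing read proportions per bin multiplied by bin number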
Details: c terminus: native
Quantity Measured: protein stability index
Please give only the number in your answer, with no unit.

Ask | Dear colleague, please send me the reported protein stability index for "H7K" when you can.
Reply | 2.14

Ask | Dear colleague, please send me the reported protein stability index for "H10D" when you can.
Reply | 1.74

Ask | Dear colleague, please send me the reported protein stability index for "S12W" when you can.
Reply | 3.49

Ask | Dear colleague, please send me the reported protein stability index for "Q14Y" when you can.
Reply | 1.85

Ask | Dear colleague, please send me the reported protein stability index for "Q14P" when you can.
Reply | 2.67

Ask | Dear colleague, please send me the reported protein stability index for "H4N" when you can.
Reply | 4.06

Ask | Dear colleague, please send me the reported protein stability index for "H5T" when you can.
Reply | 3.1

Ask | Dear colleague, please send me the reported protein stability index for "S17T" when you can.
Reply | 4.17

Ask | Dear colleague, please send me the reported protein stability index for "H2Y" when you can.
Reply | 2.31

Ask | Dear colleague, please send me the reported protein stability index for "S3H" when you can.
Reply | 2.27

Ask | Dear colleague, please send me the reported protein stability index for "S3W" when you can.
Reply | 2.33

Ask | Dear colleague, please send me the reported protein stability index for "H13Q" when you can.
Reply | 2.12

Ask | Dear colleague, please send me the reported protein stability index for "S15W" when you can.
Reply | 2.92

Ask | Dear colleague, please send me the reported protein stability index for "P19F" when you can.
Reply | 2.38

Ask | Dear colleague, please send me the reported protein stability index for "H23V" when you can.
Reply | 2.35

Ask | Dear colleague, please send me the reported protein stability index for "S12A" when you can.
Reply | 2.22

Ask | Dear colleague, please send me the reported protein stability index for "N20H" when you can.
Reply | 2.44

Ask | Dear colleague, please send me the reported protein stability index for "H10K" when you can.
Reply | 2.86

Ask | Dear colleague, please send me the reported protein stability index for "H8E" when you can.
Reply | 2.42
